EXPERIMENTAL_PROTOCOL: Binding of 10 phosphate buffer
Assay type: protein assay
ASSAY_SETUP: Bos taurus
VALUE_TYPE: Binding (%)

CCCNC1CCS(=O)(=O)c2sc(S(N)(=O)=O)cc21.Cl (configuration not stated) = 19.8
Cl.NC1CCS(=O)(=O)c2sc(S(N)(=O)=O)cc21 (configuration not stated) = 32.1

A = CCN(CC)C1CCS(=O)(=O)c2sc(S(N)(=O)=O)cc21.Cl (configuration not stated)
B = CCCCNC1CCS(=O)(=O)c2sc(S(N)(=O)=O)cc21.Cl (configuration not stated)
C = NS(=O)(=O)c1cc2c(s1)S(=O)(=O)CCC2O (configuration not stated)
IN: List the 3 entries from lowest Binding to highest Binding value. List the labels in the requested order.
OUT: C, A, B
